# Procedure Text: In vivo pharmacokinetics after intravenous administration
# Experimental Context: mouse, plasma, ICR mice
Observation Type: AUC(0-inf) (ng·h/mL)
Reply numerically in ng·h/mL, unit not repeated.

Challenge: # return recorded AUC(0-inf) for input CC(=O)O[C@H]1C(=O)[C@@]2(C)[C@H]([C@H](OC(=O)c3ccccc3)[C@]3(O)C[C@H](OC(=O)[C@H](O)[C@@H](NC(=O)c4ccccc4)c4ccccc4)C(C)=C1C3(C)C)[C@]1(OC(C)=O)CO[C@@H]1C[C@@H]2O [Taxol, Paclitaxel]
Response given: 85.4

---

# Procedure Text: In vivo pharmacokinetics after intravenous administration
# Experimental Context: mouse, plasma, ICR mice
Observation Type: Cmax
Answer format reminder: number followed by unit.

Challenge: For the compound CC(=O)O[C@H]1C(=O)[C@@]2(C)[C@H]([C@H](OC(=O)c3ccccc3)[C@]3(O)C[C@H](OC(=O)[C@H](O)[C@@H](NC(=O)c4ccccc4)c4ccccc4)C(C)=C1C3(C)C)[C@]1(OC(C)=O)CO[C@@H]1C[C@@H]2O , give its measured Cmax value.
Response given: 94.6 ng/mL

---

# Procedure Text: In vivo pharmacokinetics after intravenous administration
# Experimental Context: mouse, plasma, ICR mice
Observation Type: AUC(0-t) (ng·h/mL)
Please give a number only; it is taken to be in ng·h/mL.

Challenge: Using known records, supply AUC(0-t) for CC(=O)O[C@H]1C(=O)[C@@]2(C)[C@H]([C@H](OC(=O)c3ccccc3)[C@]3(O)C[C@H](OC(=O)[C@H](O)[C@@H](NC(=O)c4ccccc4)c4ccccc4)C(C)=C1C3(C)C)[C@]1(OC(C)=O)CO[C@@H]1C[C@@H]2O [Taxol, Paclitaxel]
Response given: 67.5

---

# Procedure Text: In vivo pharmacokinetics after intravenous administration
# Experimental Context: mouse, plasma, ICR mice, read-out: t1/2β (converted)
# Experimental: Pharmacokinetics was evaluated in ICR mice (about 20 g). […] A total of 0.1 mL of fresh blood was collected through orbital at appropriate intervals, put into a centrifuge tube pretreated with heparin sodium, and centrifugated (5000 rpm, 10 min). […] The amounts of PTX in the collected supernatant were determined by HPLC (acetonitrile:water = 50:50 (v:v); flow rate: 1.0 mL/min; wavelength: 227 nm).
Observation Type: half-life (min)
Give a bare numeral; the unit min is implied.

Challenge: Could you please provide reported half-life for CC(=O)O[C@H]1C(=O)[C@@]2(C)[C@H]([C@H](OC(=O)c3ccccc3)[C@]3(O)C[C@H](OC(=O)[C@H](O)[C@@H](NC(=O)c4ccccc4)c4ccccc4)C(C)=C1C3(C)C)[C@]1(OC(C)=O)CO[C@@H]1C[C@@H]2O [Taxol, Paclitaxel] ? Thanks!
Response given: 26

All figures here come from paper PMC10254657.
